Test system: ryegrass, Italian (Italian ryegrass, Lolium multiflorum)
Experiment: Test A postemergence
Assay type: in vivo
Settings: Postemergence, 500 g ai/ha; 0 to 100 scale where 0 is no effect and 100 is complete control
RECORDED METRIC: Plant response rating, Ryegrass, Italian
Field format: numeric only.

Completed entries (count: 2):
O=C1NCC(c2cc(F)c(F)cc2F)C1C(=O)Nc1ccc(F)c(F)c1F (centres unmarked) : 20
O=C1NCC(c2ccc(Oc3ccccc3)cc2)C1C(=O)Nc1cccc(F)c1F (racemic) : 0

Prompt: Would you kindly share the measured Plant response rating, Ryegrass, Italian for Cc1ccc(C2CNC(=O)C2C(=O)Nc2ccccc2S(C)(=O)=O)c(F)c1 (racemic) ?
Completion: 0

Prompt: Would you kindly share the measured Plant response rating, Ryegrass, Italian for CN1CC(c2cccc(OC(F)F)c2)C(C(=O)Nc2ccccc2F)C1=O (centres unmarked) ?
Completion: 50

Prompt: Would you kindly share the measured Plant response rating, Ryegrass, Italian for CCc1cccc(C2CN(C)C(=O)C2C(=O)Nc2ccccc2F)c1 (centres unmarked) ?
Completion: 70

* * *

Test system: corn (Zea mays)
Assay: Test A postemergence
Assay type: in vivo
Conditions: Zea mays, post-emergence, 240 h, 125 g ai/ha, postemergence, visual injury vs untreated controls after approx. 10 d; 0 = no effect, 100 = complete control; read-out: Corn plant response rating (0 to 100 scale)
Friendly reminder: plant injury at 125 g/ha below 20% is true, at or above is false.

COc1cc(C(F)(F)F)ccc1[C@H]1CN(C)C(=O)[C@@H]1C(=O)Nc1cccc(F)c1C : false

Prompt: Report whether reported plant injury at 125 g/ha is lower than 20% (strictly) for "COc1ccc([C@H]2CN(C)C(=O)[C@@H]2C(=O)Nc2ccccc2F)c(OC)c1"
Completion: true

Prompt: Report whether reported plant injury at 125 g/ha is lower than 20% (strictly) for "CN1C[C@H](c2ccc(C#N)cc2)[C@@H](C(=O)Nc2ccccc2F)C1=O"
Completion: true

Prompt: Report whether reported plant injury at 125 g/ha is lower than 20% (strictly) for "CN1C[C@H](c2cc(F)cc(C(F)(F)F)c2)[C@@H](C(=O)Nc2cccc(F)c2F)C1=O"
Completion: false

Prompt: Report whether reported plant injury at 125 g/ha is lower than 20% (strictly) for "COc1ccc(C(F)(F)F)cc1[C@H]1CN(C)C(=O)[C@@H]1C(=O)Nc1cccc(F)c1F"
Completion: false

Prompt: Report whether reported plant injury at 125 g/ha is lower than 20% (strictly) for "O=C1NC[C@H](c2nccs2)[C@H]1C(=O)Nc1cccc(F)c1F"
Completion: true

Prompt: Report whether reported plant injury at 125 g/ha is lower than 20% (strictly) for "CN1C[C@H](c2ccc(Cl)c(F)c2)[C@@H](C(=O)Nc2cccc(F)c2F)C1=O"
Completion: false

Prompt: Report whether reported plant injury at 125 g/ha is lower than 20% (strictly) for "CSc1ccccc1NC(=O)[C@H]1C(=O)NC[C@@H]1c1ccc(F)c(C#N)c1"
Completion: true

* * *

Test system: ducksalad (Heteranthera limosa)
Assay: Test B flooded paddy test
Format: in vivo
Settings: Heteranthera limosa, 250 g ai/ha, Flood; 0 to 100 scale where 0 is no effect and 100 is complete control; read-out: Ducksalad plant response rating
Friendly reminder: pest or weed control at 250 g/ha below 90% is criterion met, at or above is criterion not met.

CN1C[C@H](c2ccc(C(F)(F)F)cn2)[C@@H](C(=O)Nc2cccc(F)c2F)C1=O : criterion not met
CN1C[C@H](c2csc(C(F)F)c2)[C@@H](C(=O)Nc2ccccc2F)C1=O : criterion not met
COc1cc([C@H]2CN(C)C(=O)[C@@H]2C(=O)Nc2ccccc2F)cc(OC)c1OC : criterion met
Cc1cc([C@H]2CNC(=O)[C@@H]2C(=O)Nc2ccccc2S(C)(=O)=O)ccc1C(F)(F)F : criterion not met
CN1C[C@H](c2cccc(C(C)(F)F)c2)[C@@H](C(=O)Nc2ccccc2F)C1=O : criterion not met

Prompt: Report whether reported pest or weed control at 250 g/ha is lower than 90% (strictly) for "CN1C[C@H](c2cc(C(F)F)cs2)[C@@H](C(=O)Nc2cccc(F)c2C#N)C1=O"
Completion: criterion met

Prompt: Report whether reported pest or weed control at 250 g/ha is lower than 90% (strictly) for "Cc1ccc([C@H]2CNC(=O)[C@@H]2C(=O)Nc2ccccc2F)cc1C"
Completion: criterion not met

Prompt: Report whether reported pest or weed control at 250 g/ha is lower than 90% (strictly) for "CSc1ccccc1NC(=O)[C@H]1C(=O)NC[C@@H]1c1ccc2c(c1)OCO2"
Completion: criterion met

Prompt: Report whether reported pest or weed control at 250 g/ha is lower than 90% (strictly) for "Cc1ccncc1NC(=O)[C@H]1C(=O)N(C)C[C@@H]1c1cccc(C(F)(F)F)c1"
Completion: criterion met

Prompt: Report whether reported pest or weed control at 250 g/ha is lower than 90% (strictly) for CN1CC(c2cccc(/C=C/Cl)c2)C(C(=O)Nc2ccccc2F)C1=O (centres unmarked)
Completion: criterion met

Prompt: Report whether reported pest or weed control at 250 g/ha is lower than 90% (strictly) for "CSc1ccccc1NC(=O)[C@H]1C(=O)N(C2CC2)CC[C@@H]1c1ccc(F)cc1"
Completion: criterion met

Prompt: Report whether reported pest or weed control at 250 g/ha is lower than 90% (strictly) for "Cc1c(F)cccc1NC(=O)[C@H]1C(=O)N(C)C[C@@H]1c1cc(C(F)F)cs1"
Completion: criterion met

Prompt: Report whether reported pest or weed control at 250 g/ha is lower than 90% (strictly) for "CN1C[C@H](c2ccc(C#N)cc2)[C@@H](C(=O)Nc2cccc(F)c2F)C1=O"
Completion: criterion not met

* * *

pest or weed control at 250 g/ha listing for selected compounds.
System: redroot pigweed (Amaranthus retroflexus)
Experiment: Test G Pre-Emergence Protocol
Assay type: in vivo
Conditions: Amaranthus retroflexus, pre-emergence, 312 h, 250 g ai/ha, evaluated after 13 days, read-out: Pigweed, Redroot damage rating (100=total damage to plant; 0=no damage to plant)
Field: numeric (%). Do not append units.

Completed entries (count: 2):
Cc1cccc(NC(=O)[C@H]2C(=O)N(C)C[C@@H]2c2ccc(C(F)(F)F)cc2)n1 (racemic) : 0
Cc1c(F)ccc(NC(=O)[C@@H]2C(=O)N(C)C[C@H]2c2ccc(C(F)(F)F)cc2)c1F (racemic) : 0

Prompt: Would you kindly share the measured pest or weed control at 250 g/ha for Cc1cccc(NC(=O)[C@@H]2C(=O)N(C)C[C@H]2c2ccc(C(F)(F)F)cc2)c1Br (racemic) ?
Completion: 20

Prompt: Would you kindly share the measured pest or weed control at 250 g/ha for Cc1cc([C@@H]2CN(C)C(=O)[C@H]2C(=O)Nc2cccc(F)c2F)cc(Cl)n1 (racemic) ?
Completion: 20

* * *

Test system: giant foxtail (Setaria faberi)
Assay: Test G Post-Emergence Protocol
Format: in vivo
Details: Setaria faberi, post-emergence, 312 h, 15.625 g ai/ha, evaluated after 13 days (100=total damage to plant; 0=no damage to plant), read-out: Foxtail, Giant damage rating
RECORDED METRIC: pest or weed control at 15.625 g/ha
Express your answer as a number followed by its unit.

CN1C[C@H](c2cccc(C#N)c2)[C@@H](C(=O)Nc2ccccc2F)C1=O (racemic) : 10%
CN1C[C@@H](c2cc(Cl)nc(Cl)c2)[C@H](C(=O)Nc2cccc(F)c2F)C1=O (racemic) : 60%
CN1C[C@@H](c2ccc(C(F)(F)F)cc2)[C@H](C(=O)Nc2cncc(F)n2)C1=O (racemic) : 0%

// next item, pest or weed control at 15.625 g/ha requested
Prompt: Would you kindly share the measured pest or weed control at 15.625 g/ha for Cc1cccc(NC(=O)[C@@H]2C(=O)N(C)C[C@H]2c2ccc(C(F)(F)F)cc2)c1Br (racemic) ?
Completion: 20%

* * *

System: barnyardgrass (Echinochloa crus-galli)
Test: Test A postemergence
Assay type: in vivo
Conditions: 125 g ai/ha, postemergence; visual rating after approx. 10 d, 0 to 100 scale (0 no effect, 100 complete control)
RECORDED METRIC: Plant response rating, Barnyardgrass

Completed entries (count: 3):
Cc1ccc(C2CNC(=O)C2C(=O)Nc2cccc(F)c2F)cc1C(F)(F)F (racemic) [Compound 679] : 40
O=C1NCC(c2cc(F)c(F)cc2F)C1C(=O)Nc1ccc(F)c(F)c1F (stereo not shown) [Compound 614] : 80
O=C1NCC(c2cc(C(F)(F)F)ccc2F)C1C(=O)Nc1ccc(F)cc1F (stereo not shown) [Compound 595] : 90

Prompt: Would you kindly share the measured Plant response rating, Barnyardgrass for CN1CC(c2ccc(Br)cc2)C(C(=O)Nc2ccccc2S(C)(=O)=O)C1=O (stereo not shown) [Compound 565] ?
Completion: 80
